SYSTEM: Recombinant human mPGES-1 (Homo sapiens)
PROTOCOL DESCRIPTION: In-vitro mPGES-1 enzyme inhibition assay (PGE2 formation from PGH2, HTRF detection)
Type: biochemical
TEST SETTINGS: 1 μM test compound; recombinant human mPGES-1 microsomal fraction; read-out: Percentage inhibition at 1 μM
# key: entry, value: inhibition at 1 µM
Express it in %; write the number only.

Please review the following examples before continuing.
[[record]]
smiles_representation = "CCCCCCNC(=O)c1cc2nc(Nc3c(Cl)cccc3Cl)[nH]c2c2nc(C)oc12"
experimental_value = 89.5

[[record]]
smiles_representation = "CC1(C)Cc2c(c(C(=O)Nc3ccc(Br)cc3)cc3nc(Nc4c(Cl)cccc4Cl)[nH]c23)O1"
experimental_value = 100

[[record]]
smiles_representation = "CC1(C)Cc2c(c(C(=O)Nc3cccc(C(F)(F)F)c3)cc3nc(NCc4ccccc4Cl)[nH]c23)O1"
experimental_value = 37.3

[[record]]
smiles_representation = "C[C@@H](NC(=O)c1cc2nc(Nc3c(Cl)cncc3Cl)[nH]c2c2c1OC(C)(C)C2)C(C)(C)C"
experimental_value = 93.4


Moving on to another compound below.
Lab book: inhibition at 1 µM of `CC(C)(C)c1ccc(NC(=O)c2cc3nc(Nc4c(Cl)cccc4Cl)[nH]c3c3nc(C4CC4)oc23)cc1` noted as 96.9

* * *

# key: entry, value: inhibition at 10 µM
SYSTEM: Recombinant human mPGES-1 (Homo sapiens)
PROTOCOL DESCRIPTION: In-vitro mPGES-1 enzyme inhibition assay (PGE2 formation from PGH2, HTRF detection)
Type: biochemical
TEST SETTINGS: 10 μM test compound; recombinant human mPGES-1 microsomal fraction; read-out: Percentage inhibition at 10 μM
Express it in %; write the number only.

[[record]]
compound = "CC1(C)Cc2c(c(C(=O)Nc3cc(C(F)(F)F)ccc3F)cc3nc(Nc4c(F)cccc4Cl)[nH]c23)O1 [Example-111]"
result_type = "inhibition at 10 µM"
experimental_value = 99.8


Cn1c(Nc2c(Cl)cncc2Cl)nc2cc(C(=O)Nc3ccc(C(F)(F)F)cn3)c3c(c21)CC(C)(C)O3 [Example-219] tested on Recombinant human mPGES-1 (Homo sapiens) gave inhibition at 10 µM: 98.5

CC1(C)Cc2c(c(C(=O)Nc3ccc(Cl)cc3)cc3nc(Nc4ccccc4Cl)[nH]c23)O1 [Example-18] tested on Recombinant human mPGES-1 (Homo sapiens) gave inhibition at 10 µM: 99.8

CC1(C)Cc2c(c(C(=O)Nc3ccc(C(F)(F)F)nc3)cc3nc(Nc4c(Cl)cccc4Cl)[nH]c23)O1 [Example-166] tested on Recombinant human mPGES-1 (Homo sapiens) gave inhibition at 10 µM: 99.6

Cn1c(Nc2c(Cl)cncc2Cl)nc2cc(C(=O)Nc3ccc(C4CC4)cc3)c3c(c21)CC(C)(C)O3 [Example-216] tested on Recombinant human mPGES-1 (Homo sapiens) gave inhibition at 10 µM: 96.4

* * *

SYSTEM: Recombinant human mPGES-1 (Homo sapiens, UniProt O14684)
Sequence (O14684 1-152): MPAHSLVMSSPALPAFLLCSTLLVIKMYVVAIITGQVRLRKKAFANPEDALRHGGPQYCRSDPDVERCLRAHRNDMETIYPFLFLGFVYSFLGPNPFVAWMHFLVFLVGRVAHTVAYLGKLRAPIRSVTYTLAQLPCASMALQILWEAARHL
PROTOCOL DESCRIPTION: In-vitro mPGES-1 enzyme inhibition assay (PGE2 formation from PGH2, HTRF detection)
Assay type: biochemical
TEST SETTINGS: 10 μM test compound; recombinant human mPGES-1 microsomal fraction; read-out: Percentage inhibition at 10 μM
RESULT TYPE: inhibition at 10 µM (%)
Express it in %; write the number only.

Please review the following examples before continuing.
[[record]]
smiles_representation = "CC1(C)Cc2c(c(C(=O)NC3(c4cccc(C(F)(F)F)c4)CC3)cc3nc(Nc4c(F)cccc4Cl)[nH]c23)O1"
result_type = "inhibition at 10 µM"
experimental_value = 99

[[record]]
smiles_representation = "CC1(C)Cc2c(c(C(=O)NCc3ccc(F)cc3)cc3nc(Nc4c(Cl)cncc4Cl)[nH]c23)O1"
result_type = "inhibition at 10 µM"
experimental_value = 97.8

[[record]]
smiles_representation = "CC1(C)Cc2c(c(C(=O)Nc3ccc(C(F)(F)F)cn3)cc3nc(Nc4c(Cl)cccc4Cl)[nH]c23)O1"
result_type = "inhibition at 10 µM"
experimental_value = 98

[[record]]
smiles_representation = "CC1(C)Cc2c(c(C(=O)Nc3ccccc3F)cc3nc(Nc4c(Cl)cccc4Cl)[nH]c23)O1"
result_type = "inhibition at 10 µM"
experimental_value = 92.5

[[record]]
smiles_representation = "Cc1cc2c(o1)c(C(=O)Nc1ccc(Br)cn1)cc1nc(Nc3c(Cl)cccc3Cl)[nH]c12"
result_type = "inhibition at 10 µM"
experimental_value = 98.4


Lab book: inhibition at 10 µM of `Cc1cc(C(F)(F)F)ccc1NC(=O)c1cc2nc(Nc3c(F)cccc3Cl)[nH]c2c2c1OC(C)(C)C2` noted as 98.7
